assay: Therapeutic index, ratio of LD50 for mortality to ED50 for anticonvulsant activity in Swiss albino mouse; assay type: organism-based; conditions: in vivo, read-out: TI
RECORDED_METRIC: therapeutic index
Field format: numeric only.

The cases that follow already have their therapeutic index on record.
1) CCOC(=O)NNC(=O)COc1cccc2c(=O)n(-c3ccccc3C)c(C)nc12 :: 1.53
2) Cc1ccccc1-n1c(C)nc2ccccc2c1=O [METHAQUALONE] :: 2.5
3) CSC(=S)NNC(=O)COc1cccc2c(=O)n(-c3ccccc3C)c(C)nc12 :: 3.34

Next compound, therapeutic index to be filled in.
Query: Name the reported therapeutic index value associated with the compound Cc1ccccc1-n1c(C)nc2c(OCC(=O)NN)cccc2c1=O
Response: 10.2

----------
Measured inhibition in vivo at 500 µmol/kg by item
system: Mus musculus; assay: Anticonvulsant activity in Swiss albino mouse assessed as protection against PTZ-induced seizure at 0.5 mmol/kg, ip administered 30 mins before challenge; format: functional
All answers are understood in %, so give the number only.

Some entries whose results are on file:
1. Cc1ccccc1-n1c(C)nc2c(OCC(=O)NNC(=S)NN)cccc2c1=O :: 66
2. CSC(=S)NNC(=O)COc1cccc2c(=O)n(-c3ccccc3C)c(C)nc12 :: 100
3. Cc1ccccc1-n1c(C)nc2c(OCC(=O)N/N=C\c3ccccc3)cccc2c1=O :: 50
4. Cc1ccccc1-n1c(C)nc2c(OCC(=O)NNC(N)=O)cccc2c1=O :: 50
5. Cc1ccccc1-n1c(C)nc2c(OCC(=O)N/N=C\c3ccccc3F)cccc2c1=O :: 66

Query: What does the data say about its inhibition in vivo at 500 µmol/kg? Entry: CCOC(=O)NNC(=O)COc1cccc2c(=O)n(-c3ccccc3C)c(C)nc12
Response: 100

Query: Give its inhibition in vivo at 500 µmol/kg value. Item: COc1ccccc1/C=N\NC(=O)COc1cccc2c(=O)n(-c3ccccc3C)c(C)nc12
Response: 33

----------
assay: Neurotoxicity in ip dosed Swiss albino mouse assessed as mortality; assay type: toxicity, organism-based; details: in vivo
RECORDED_METRIC: LD50 (mg/kg)
Number only, in mg/kg; omit the unit.

1) CSC(=S)NNC(=O)COc1cccc2c(=O)n(-c3ccccc3C)c(C)nc12 :: 501

Query: What LD50 value was documented for this compound, CCCC(CCC)C(=O)[O-].[Na+] [VALPROATE SODIUM] ?
Response: 500

Query: Looking for the measured LD50 of Cc1ccccc1-n1c(C)nc2c(OCC(=O)NN)cccc2c1=O , can you help?
Response: 1000

Query: What value of LD50 has been recorded for this entry: CCOC(=O)NNC(=O)COc1cccc2c(=O)n(-c3ccccc3C)c(C)nc12
Response: 418

Query: What does the record list as LD50 for Cc1ccccc1-n1c(C)nc2ccccc2c1=O ?
Response: 500

----------
system: Mus musculus; experiment: Anticonvulsant activity in Swiss albino mouse assessed as protection against PTZ-induced seizure at 0.5 mmol/kg, ip administered 30 mins before challenge; format: functional
RECORDED_METRIC: inhibition in vivo at 500 µmol/kg (%)
Record the value in %, omitting the unit from your answer.

# count of solved cases: 2
1. Cc1ccccc1-n1c(C)nc2c(OCC(=O)NNC(=O)NN)cccc2c1=O :: 50
2. Cc1ccccc1-n1c(C)nc2c(OCC(=O)NCCO)cccc2c1=O :: 50

Shift focus to the following entry.
Query: Need inhibition in vivo at 500 µmol/kg, item Cc1ccccc1-n1c(C)nc2c(OCC(=O)NN)cccc2c1=O
Response: 100
